- Assay system: human PD-1 expressed on cells (UniProt Q15116 25-288)
- Sequence (Q15116 25-288): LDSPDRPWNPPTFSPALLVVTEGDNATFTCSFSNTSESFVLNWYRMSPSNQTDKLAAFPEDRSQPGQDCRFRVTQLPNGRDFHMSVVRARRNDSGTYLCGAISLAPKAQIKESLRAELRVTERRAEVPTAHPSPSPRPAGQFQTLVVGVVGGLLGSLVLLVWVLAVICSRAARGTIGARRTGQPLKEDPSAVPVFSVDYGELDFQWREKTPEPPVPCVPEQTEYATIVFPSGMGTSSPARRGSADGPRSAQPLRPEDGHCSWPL
- Assay remarks: FACS ligand competition (PD-L1 Fc)
Measurement type: IC50

// fetch IC50 given entry AS25396_HCAb (antibody, V domains shown) VH: QVHLMESGGGSVQAGGSLRLSCVVSGISISPDCMGWFRQAPGKKREAVATIFTNTRRTRYGDSVKGRVTSSQGNAKNTLYLKMDNLRHDDTATYYCAARYTGGDCFNLDPLSWRFWGQGTQVTVSS
1.34 nM

Determine its reported IC50: AS25119_HCAb (antibody, V domains shown) VH: QVQLVESGGGSVQAGGPLRLTCAATGYSWRPDCMGWYRQAAEKEREGVAVIDADGITSYADAAKGRFTISRDNNNITLYLQMLKPDDTGMYVCVIGWRVSSGGNCQFNDYWGQGTQVTVSS
1.57 nM

Please report the measured IC50 for AS25071_HCAb (antibody, V domains shown) VH: EVQLAESGGGSVQSGGSLRLSCAVSGSGYSYSRGCFAWFQQRPGKEREGVAIINSDGHTAYSDSVQGRFIISQDKAKNTLYLQMNSLKPDDTAMYYCAYDRSQCYVLRDRLRLPDTFTDWGQGTQVTVSS
2.41 nM

Supply reported IC50 belonging to this binder: AS25064_HCAb (antibody, V domains shown) VH: QVQLVESGGGSVQAGGSLRLTCAATGYSWRPDCMGWYRQAAEKEREGVAVIDADGITSYADAAKGRFTISRDNNKITLYLQMLKPDDTGMYVCVVGWRVSSGGNCQFNDYWGQGTQVTVSS
2.91 nM

Fill in IC50 for record AS25222_HCAb (antibody, V domains shown) VH: QIQLVESGGGSVQAGGSLRLSCAVTGISISPDCMGWFRQAPGKKREAVATIFTNTASTRYGDSVKGRFTSSQGNGKNTLYLQMDSLNVDDTATYYCAARYTGGNCFNLEPLAWHFWGQGTQVTVSS
1.66 nM

# return recorded IC50 for input AS25164_HCAb (antibody, V domains shown) VH: EVQLVESGGGSVQSGGSLRLSCAVSGSGYSYNRGCFAWFQQRPGKEREGVAIINSDGHTTYGDSVQGRFIISQDKAKNTLDLQMNSLKPDDTAMYYCAYDRNQCYVLRDRLRLPDTFTDWGQGTQVTVSS
3.25 nM

For the binder AS25067_HCAb (antibody, V domains shown) VH: QVHLMESGGGAVQTGGSLRLSCAVSGISISPDCMGWFRQAPGKKREAVTTIFANTGSARYGDSVKGRFTSSQGNAKNTLYLQMDSVKLDDTGTYYCAARFTGGDCFDHQPLAWRFWGQGTQVTVSS , give its reported IC50.
3.51 nM

Dear colleague, please send me the reported IC50 for AS25435_HCAb (antibody, V domains shown) VH: QVQLVESGGGSVQAGGSLRLSCAATAYTASFYCMGWFRQAPGKEREAVASINDDGVTMYADSVKGQFTISQDSATKTLYLQMNRLKPEDTAMYYCAATPEGYCYAERLSTWRYTFWGQGTQVTVSS when you can.
2.7 nM
